target: T1, RSV F subtype A, furin-cleaved ectodomain stabilized in the postfusion conformation (F ΔFP) (Respiratory syncytial virus subtype A, UniProt P03420 26-109; P03420 147-524); assay: BLI, IgG on AHQ sensor, 100 nM antigen
T1 construct: extracellular domain; Trimeric soluble antigen; also called Postfusion subtype A
Binary label based on Kd with cut-off 2 nM: below gives t, not below gives f.

Field: example entries. Status: answers known.
ADI-18933 (antibody, V domains shown, full-length IgG from yeast) VH: QVQLVESGAEVKKPGASVKVACTASGYAFTNYNIHWVRLAPGQGLEWMAIINPGSGGTDYSEKFQGRLTLTSDTSTSTVYMTLGSLRYEDTAFYYCARRGYPDSGSYPLDYWGQGTLVTVSS VL: DIVMTQSPSSLSASLGDRVTITCRAGRSIATYLNWYQQKPGKAPKLLIYGASSLQSGVPSRFSGSGSGTHFTLTISSLQPEDFATYYCQQSYIRPITFGGGTKVEIK    f
ADI-18895 (antibody, V domains shown, full-length IgG from yeast; also called Antibody Number 250; Ab # 250) VH: QVQLVQSGPEVKKTRESLKIYCKGSGYSFISHWIGWVRQKPGKGLEWMGIIYPGDSDTRYSPSFQGQVAISADKSINTAYLQWSSLKSSDTAIYYCASVMLRGIMWGQGTLVTVSS VL: DIRLTQSPSSLSASVGDRVTITCQASQDISKYLNWYQQKPGKAPKLLIYDASNLETGVPSRFSGSGSGTDFTFTISSLQPEDIATYYCQPYDNLPPPLTFGGGTKLEIK    f
ADI-18941 (antibody, V domains shown, full-length IgG from yeast) VH: EVQLVESAAEVKKPGESLKISCKGSGYSFASHWIGWVRQMPGKGLELMGFIYPGDSDTRYNPSFQGQVTISADKSISTAYLQWTRLKASDTAMYYCGQAVAGGEYFHHWGQGTLVTVSS VL: DIVMTQSPATLSVSPGERATLSCRASQSLGSDLAWYQQKPGQTPRLLIYDASTRATGIPARFSGSGSGTEFTLTISSLQSEDFAVYYCQHYNNWPRGFGQGTKVEIK    f
ADI-18918 (antibody, V domains shown, full-length IgG from yeast) VH: QVQLVQSGAEVKKPGESLKISCKGSGYSFSSFWIGWVRQMPGKGLEWMGIIYPGDSDTRYSPSFQGQVTMSADTSINTAYLQWNSVKASDTAIYYCARLPVGSYYYFNLWGRGTLVTVSS VL: EIVMTQSPATLSVSPGESATLFCRASQSISSDLAWYQQRPGQAPRLLIYDASTRATGVPARFSATGSEAEFTLTISGLQSEDFAVYYCQQYNNWLSWTFGQGTKLEIK    t

input: Dear reviewer, please state whether ADI-18942 (antibody, V domains shown, full-length IgG from yeast; also called Antibody Number 295; Ab # 295) VH: QVQLQESGPGRVKPSQTLSLTCTVSGVSVTINDYYWTWLRQSPGKGLEWIGNIYNSGSTYQNPSLQSRVTMSVDTAKNHFSLKLTSVTAADTAVYYCARDLGTANNYYFGMDVWGLGTTVTVSS VL: EIVMTQSPATLSLSPGERATLSCRASQSVSTYLAWYQQKPGQAPRLLIYNGSNRVTGTPARFSGSGSGTDFTLTISSVEPEDFAVYYCQQRSNWPPYTFGQGTKVEIK has Kd strictly beneath 2 nM.
output: t
